assay: Absorption test, oral, rats, solution in buffer pH 7 (Example 16)
Format: in vivo, Male Wistar rats
condition: blood, 1 hr., 50 mg/kg oral, rat, average of 6, read-out: Blood Concentration of the Compound
reported.endpoint: concentration at 1 h
Please state the number and follow it with the unit.

stdin: Give the measured concentration at 1 h of N[C@@H](Cc1c[nH]c(SCC(=O)N[C@@H]2C(=O)N3C(C(=O)O)=C(CSc4cnn[nH]4)CS[C@H]23)n1)C(=O)O [Example 5] .
stdout: 13700 ng/mL

Continuing:
stdin: Give the measured concentration at 1 h of N[C@@H](Cc1c[nH]c(SCC(=O)N[C@@H]2C(=O)N3C(C(=O)O)=CCS[C@H]23)n1)C(=O)O [Example 11] .
stdout: 7400 ng/mL

stdin: Give the measured concentration at 1 h of Cc1nnc(SCC2=C(C(=O)O)N3C(=O)[C@@H](NC(=O)CSc4nc(C[C@H](N)C(=O)O)c[nH]4)[C@H]3SC2)o1 [Example 6] .
stdout: 5300 ng/mL

stdin: Give the measured concentration at 1 h of COC1=C(C(=O)O)N2C(=O)[C@@H](NC(=O)CSc3nc(C[C@H](N)C(=O)O)c[nH]3)[C@H]2SC1 [Example 9] .
stdout: 6700 ng/mL

stdin: Give the measured concentration at 1 h of CC(=O)OCC1=C(C(=O)O)N2C(=O)[C@@H](NC(=O)CSc3nc(C[C@H](N)C(=O)O)c[nH]3)[C@H]2SC1 [Example 1] .
stdout: 1600 ng/mL

stdin: Give the measured concentration at 1 h of N[C@@H](Cc1c[nH]c(SCC(=O)N[C@@H]2C(=O)N3C(C(=O)O)=C(CSc4nc[nH]n4)CS[C@H]23)n1)C(=O)O [Example 4] .
stdout: 1200 ng/mL

stdin: Give the measured concentration at 1 h of Cn1nncc1SCC1=C(C(=O)O)N2C(=O)[C@@H](NC(=O)CSc3nc(C[C@H](N)C(=O)O)c[nH]3)[C@H]2SC1 [Example 7] .
stdout: 2100 ng/mL

stdin: Give the measured concentration at 1 h of Cn1nnnc1SCC1=C(C(=O)O)N2C(=O)[C@@H](NC(=O)CSc3nc(C[C@H](N)C(=O)O)c[nH]3)[C@H]2SC1 [Example 2] .
stdout: 2900 ng/mL

====

assay: Absorption test, oral, rats, solution in buffer pH 7 (Example 16)
Assay type: in vivo, Male Wistar rats
condition: blood, 1 hr., 50 mg/kg oral, rat, average of 6, read-out: Blood Concentration of the Compound
reported.endpoint: concentration at 1 h (ng/mL)
# unit: ng/mL | format: bare number

# example entries with known answers
stdin: Give the measured concentration at 1 h of CC1=C(C(=O)O)N2C(=O)[C@@H](NC(=O)CSc3nc(C[C@H](N)C(=O)O)c[nH]3)[C@H]2SC1 .
stdout: 11300

stdin: Give the measured concentration at 1 h of Cc1nnc(SCC2=C(C(=O)O)N3C(=O)[C@@H](NC(=O)CSc4nc(C[C@H](N)C(=O)O)c[nH]4)[C@H]3SC2)s1 .
stdout: 12400

Could you now consider this next compound?
stdin: Give the measured concentration at 1 h of N[C@@H](Cc1c[nH]c(SCC(=O)N[C@@H]2C(=O)N3C(C(=O)O)=C(Cl)CS[C@H]23)n1)C(=O)O .
stdout: 5900
